System: Enterococcus sp.
Experiment: in vitro antibacterial evaluation, MIC by broth dilution
Assay type: cell-based
Conditions: strain GC 4556; broth dilution, 18 hours at 35° C.
Attribute measured: MIC Enterococcus faecium (GC 4556) (µg/mL)
Return type: number; implicit unit µg/mL.

Req: Endpoint output: MIC Enterococcus faecium (GC 4556) of CC(c1ccccc1)C1NC(=O)CNC(=O)C(CO)NC(=O)C(C(O)C2CNC(=N)N2C2OC(CO)C(O)C(O)C2O)NC(=O)C(C(O)C2CNC(=N)N2)NC(=O)C(Cc2ccc(OC3OC(CO)C(OC4OC5COC(c6cc7c(cc6Cl)OCO7)OC5C(O)C4O)C(O)C3O)cc2)NC1=O (stereo not shown) . Value?
Resp: 8

Req: Now this one: COc1ccc(Oc2cccc(C3OCC4OC(OC5C(CO)OC(Oc6ccc(CC7NC(=O)C(C(C)c8ccccc8)NC(=O)CNC(=O)C(CO)NC(=O)C(C(O)C8CNC(=N)N8C8OC(CO)C(O)C(O)C8O)NC(=O)C(C(O)C8CNC(=N)N8)NC7=O)cc6)C(O)C5O)C(O)C(O)C4O3)c2)cc1 (stereo not shown)
Resp: 2

Req: Now this one: CC(c1ccccc1)C1NC(=O)CNC(=O)C(CO)NC(=O)C(C(O)C2CNC(=N)N2C2OC(CO)C(O)C(O)C2O)NC(=O)C(C(O)C2CNC(=N)N2)NC(=O)C(Cc2ccc3oc(-c4ccoc4)nc3c2)NC1=O (stereo not shown)
Resp: 128

Req: Now this one: CC(c1ccccc1)C1NC(=O)CNC(=O)C(CO)NC(=O)C(C(O)C2CNC(=N)N2C2OC(CO)C(O)C(O)C2O)NC(=O)C(C(O)C2CNC(=N)N2)NC(=O)C(Cc2ccc(O)c(NC(=S)Nc3cc(C(F)(F)F)cc(C(F)(F)F)c3)c2)NC1=O (stereo not shown)
Resp: 64

----------
Test system: Streptococcus sp.
Assay: in vitro antibacterial evaluation, MIC by broth dilution
Type: cell-based
Conditions: strain GC 4565; broth dilution, 18 hours at 35° C.
Numbered stars: 1 amine (or outer) side, 2 acyl side, 3 side chain; on linkers, the order of the positions; unused ones are H or OH. Square brackets hold non-standard residues; d marks the D form. Peptide text beside a SMILES is read from it. ξ: configuration not given here. X6 = N=C1NCC(CC(N[*:1])C(=O)[*:2])N1C1OC(CO)C(O)C(O)C1O; Tyr(3-NO2) = N[CH](Cc1ccc(O)c([N+](=O)[O-])c1)C(=O)O; X7 = N=C1NCC(CC(N[*:1])C(=O)[*:2])N1; ξPhe(βξ-Me) = CC(c1ccccc1)C(N)C(=O)O
Attribute measured: MIC Streptococcus pneumoniae (GC 4565)

Example results:
Compound: COc1cc(C2OCC3OC(OC4C(CO)OC(Oc5ccc(CC6NC(=O)C(C(C)c7ccccc7)NC(=O)CNC(=O)C(CO)NC(=O)C(C(O)C7CNC(=N)N7C7OC(CO)C(O)C(O)C7O)NC(=O)C(C(O)C7CNC(=N)N7)NC6=O)cc5)C(O)C4O)C(O)C(O)C3O2)ccc1[N+](=O)[O-] (stereo not drawn) [Example 153]
Observed result: <0.06 µg/mL
--
Compound: CC(c1ccccc1)C1NC(=O)CNC(=O)C(CO)NC(=O)C(C(O)C2CNC(=N)N2C2OC(CO)C(O)C(O)C2O)NC(=O)C(C(O)C2CNC(=N)N2)NC(=O)C(Cc2ccc(O)c(NC=O)c2)NC1=O (stereo not drawn) [Example 18]
Observed result: 128 µg/mL
--
Compound: CC(c1ccccc1)C1NC(=O)CNC(=O)C(CO)NC(=O)C(C(O)C2CNC(=N)N2C2OC(CO)C(O)C(O)C2O)NC(=O)C(C(O)C2CNC(=N)N2)NC(=O)C(Cc2ccc(OC3OC(CO)C(OC4OC5COC(c6ccc7c(c6)OCO7)OC5C(O)C4O)C(O)C3O)cc2)NC1=O (stereo not drawn) [Example 143]
Observed result: 0.25 to 0.5 µg/mL
--
Compound: COc1cccc(C2OC3C(OC4C(CO)OC(Oc5ccc(CC6NC(=O)C(C(C)c7ccccc7)NC(=O)CNC(=O)C(CO)NC(=O)C(C(O)C7CNC(=N)N7C7OC(CO)C(O)C(O)C7O)NC(=O)C(C(O)C7CNC(=N)N7)NC6=O)cc5)C(O)C4O)OC(CO)C(O)C3O2)c1 (single isomer, unassigned) [Example 137a]
Observed result: 16 µg/mL
--
Compound: CC(c1ccccc1)C1NC(=O)CNC(=O)C(CO)NC(=O)C(C(O)C2CNC(=N)N2C2OC(CO)C(O)C(O)C2O)NC(=O)C(C(O)C2CNC(=N)N2)NC(=O)C(Cc2ccc3oc(C=C(c4ccccc4)c4ccccc4)nc3c2)NC1=O (stereo not drawn) [Example 39]
Observed result: 16 µg/mL
--
Compound: CC(c1ccccc1)C1NC(=O)CNC(=O)C(CO)NC(=O)C(C(O)C2CNC(=N)N2C2OC(CO)C(O)C(O)C2O)NC(=O)C(C(O)C2CNC(=N)N2)NC(=O)C(Cc2ccc(OC3OC(CO)C(OC4OC5COC(c6ccc7c(c6)OCCO7)OC5C(O)C4O)C(O)C3O)cc2)NC1=O (stereo not drawn) [Example 149]
Observed result: 2 µg/mL
--
Compound: CC(c1ccccc1)C1NC(=O)CNC(=O)C(CO)NC(=O)C(CC2CNC(=N)N2C2OC(CO)C(O)C(O)C2O)NC(=O)C(CC2CNC(=N)N2)NC(=O)C(Cc2ccc3oc(-c4ccc5c(c4)Cc4ccccc4-5)nc3c2)NC1=O (stereo not drawn) [Example 42]
Observed result: 16 µg/mL
--
Compound: CC(c1ccccc1)C1NC(=O)CNC(=O)C(CO)NC(=O)C(C(O)C2CNC(=N)N2C2OC(CO)C(O)C(O)C2O)NC(=O)C(C(O)C2CNC(=N)N2)NC(=O)C(Cc2ccc3oc(-c4ccc(OCc5ccccc5)cc4)nc3c2)NC1=O (stereo not drawn) [Example 31]
Observed result: 64 µg/mL
--
Compound: CC(c1ccccc1)C1NC(=O)CNC(=O)C(CO)NC(=O)C(C(O)C2CNC(=N)N2C2OC(CO)C(O)C(O)C2O)NC(=O)C(C(O)C2CNC(=N)N2)NC(=O)C(Cc2ccc3oc(=O)[nH]c3c2)NC1=O (stereo not drawn) [Example 22]
Observed result: 8 µg/mL
--
Compound: CC(c1ccccc1)C1NC(=O)CNC(=O)C(CO)NC(=O)C(C(O)C2CNC(=N)N2C2OC(CO)C(O)C(O)C2O)NC(=O)C(C(O)C2CNC(=N)N2)NC(=O)C(Cc2ccc3oc(-c4cccc([N+](=O)[O-])c4)nc3c2)NC1=O (stereo not drawn) [Example 26]
Observed result: 32 µg/mL

Req: Endpoint output: MIC Streptococcus pneumoniae (GC 4565) of CC(c1ccccc1)C1NC(=O)CNC(=O)C(CO)NC(=O)C(C(O)C2CNC(=N)N2C2OC(CO)C(O)C(O)C2O)NC(=O)C(C(O)C2CNC(=N)N2)NC(=O)C(Cc2ccc(OC3OC(CO)C(OC4OC5COC(c6ccc(-c7ccc(Cl)cc7)cc6)OC5C(O)C4O)C(O)C3O)cc2)NC1=O (stereo not drawn) [Example 178] . Value?
Resp: <0.06 µg/mL

Req: Now this one: CC(c1ccccc1)C1NC(=O)CNC(=O)C(CO)NC(=O)C(CC2CNC(=N)N2C2OC(CO)C(O)C(O)C2O)NC(=O)C(CC2CNC(=N)N2)NC(=O)C(Cc2ccc(O)c([N+](=O)[O-])c2)NC1=O (stereo not drawn) [Example 10] (cyclo(G[ξPhe(βξ-Me)][Tyr(3-NO2)][X7][X6]S); configuration not given here)
Resp: >64 µg/mL

----------
Tested on: Enterococcus sp.
Assay: in vitro antibacterial evaluation, MIC by broth dilution
Assay type: cell-based
Conditions: Enterococcus faecalis (GC 6189); broth dilution, 18 hours at 35° C.
Attribute measured: MIC Enterococcus faecalis (GC 6189)

Molecule: CC(c1ccccc1)C1NC(=O)CNC(=O)C(CO)NC(=O)C(C(O)C2CNC(=N)N2C2OC(CO)C(O)C(O)C2O)NC(=O)C(C(O)C2CNC(=N)N2)NC(=O)C(Cc2ccc(OC3OC(CO)C(OC4OC5COC(c6ccc7c(c6)OCCO7)OC5C(O)C4O)C(O)C3O)cc2)NC1=O (stereo not shown) [Example 149]
MIC Enterococcus faecalis (GC 6189): 8 µg/mL

Req: Endpoint output: MIC Enterococcus faecalis (GC 6189) of CC(c1ccccc1)C1NC(=O)CNC(=O)C(CO)NC(=O)C(CC2CNC(=N)N2C2OC(CO)C(O)C(O)C2O)NC(=O)C(CC2CNC(=N)N2)NC(=O)C(Cc2ccc(OC3OC(CO)C(OC4OC(CO)C(O)C(O)C4O)C(O)C3O)cc2)NC1=O (stereo not shown) [Example 277a] . Value?
Resp: >128 µg/mL

Req: Now this one: CC(c1ccccc1)C1NC(=O)CNC(=O)C(CO)NC(=O)C(C(O)C2CN(Cc3ccc4ccccc4c3)C(=N)N2C2OC(CO)C(O)C(O)C2O)NC(=O)C(C(O)C2CNC(=N)N2)NC(=O)C(Cc2ccc(OC3OC(CO)C(OC4OC5COC6(OC5C(O)C4O)C4CC5CC(C4)CC6C5)C(O)C3O)cc2)NC1=O (stereo not shown) [Example 78]
Resp: 16 µg/mL

Req: Now this one: CSc1ccc(C2OCC3OC(OC4C(CO)OC(Oc5ccc(CC6NC(=O)C(C(C)c7ccccc7)NC(=O)CNC(=O)C(CO)NC(=O)C(C(O)C7CNC(=N)N7C7OC(CO)C(O)C(O)C7O)NC(=O)C(C(O)C7CNC(=N)N7)NC6=O)cc5)C(O)C4O)C(O)C(O)C3O2)cc1 (stereo not shown) [Example 144]
Resp: 2 µg/mL
